Each entry below carries its recorded reverse-splicing fitness.
B1: Azoarcus group I ribozyme (parent)
chain: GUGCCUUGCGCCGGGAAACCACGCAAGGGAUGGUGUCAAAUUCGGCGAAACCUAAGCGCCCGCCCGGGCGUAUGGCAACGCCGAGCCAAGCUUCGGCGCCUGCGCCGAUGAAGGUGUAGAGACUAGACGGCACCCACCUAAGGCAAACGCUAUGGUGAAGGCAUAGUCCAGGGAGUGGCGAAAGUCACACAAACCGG

Variants of: B1
Assay: reverse-splicing fitness (ratio to wild type); higher = more active; in vitro selection; Mg2+ level not given
property: reverse-splicing fitness

[[record]]
mutation_key = "C82G A111G A120C A145G C150A U176G"
property = "reverse-splicing fitness"
reported = 0.0119

[[record]]
mutation_key = "C82U A111U A120U A145C C150A U176A"
property = "reverse-splicing fitness"
reported = 0.00354

[[record]]
mutation_key = "C82G A111C A120G A145C C150A C169U U176A"
property = "reverse-splicing fitness"
reported = 0.0151

[[record]]
mutation_key = "C82A A120C A145U C150U C169A U176G"
property = "reverse-splicing fitness"
reported = 0.00539

[[record]]
mutation_key = "C82G A120C A145C C169A U176G"
property = "reverse-splicing fitness"
reported = 0.00378

[[record]]
mutation_key = "C82G A145G C150A C169A U176G"
property = "reverse-splicing fitness"
reported = 0.00731

[[record]]
mutation_key = "C82G A111C A120C A145G C150G C169U U176G"
property = "reverse-splicing fitness"
reported = 0.0072

[[record]]
mutation_key = "C82U A111C A120G C150A"
property = "reverse-splicing fitness"
reported = 0.00908

[[record]]
mutation_key = "A111C A120G C150U C169U U176C"
property = "reverse-splicing fitness"
reported = 0.0371

[[record]]
mutation_key = "A111U A120C A145C C150G C169A"
property = "reverse-splicing fitness"
reported = 0.00818

[[record]]
mutation_key = "C82U A145G C150G C169U U176G"
property = "reverse-splicing fitness"
reported = 0.00689

